- assay.overview: in vitro
- test.context: RSV CC50
reported.property: CC50 (µM)

{"molecule": "CCOc1ccc2nc(C)cc(Nc3ccc(C)c(Cl)c3)c2c1", "bound.operator": "=", "experimental.value": 25.3}
{"molecule": "CCOC(=O)c1cnc2ccc(F)cc2c1Nc1ccc(S(=O)(=O)Nc2nc(C)cc(C)n2)cc1", "bound.operator": "≥", "experimental.value": 75}
{"molecule": "CCOC(=O)c1cnc2c(OC)cccc2c1NCC(C)O (centres unmarked)", "bound.operator": "=", "experimental.value": 34.6}
{"molecule": "Cc1ccc(Nc2cc(C)nc3ccc(C)cc23)cc1", "bound.operator": "=", "experimental.value": 35.2}
{"molecule": "COc1ccc2nc(C)cc(Nc3ccc(I)cc3)c2c1", "bound.operator": "=", "experimental.value": 35.5}
{"molecule": "Cc1ccc2nc(C)cc(NCc3ccccc3)c2c1", "bound.operator": "=", "experimental.value": 56.4}
{"molecule": "Cc1cc(C)c2nc(C)cc(NCc3ccco3)c2c1", "bound.operator": "=", "experimental.value": 50.2}
{"molecule": "CCOC(=O)c1cnc2c(OC)cccc2c1NCc1cccnc1", "bound.operator": "=", "experimental.value": 51}
{"molecule": "CCOc1ccc2nc(C)cc(Nc3ccc(Cl)cc3)c2c1", "bound.operator": "=", "experimental.value": 21.2}
{"molecule": "CCOC(=O)c1cnc2ccc(OCC)cc2c1Nc1ccccc1CC", "bound.operator": "=", "experimental.value": 61.9}
{"molecule": "CCOC(=O)c1cnc2ccc(C)cc2c1NCc1ccco1", "bound.operator": "=", "experimental.value": 26.9}

* * *

Let's look at some compounds and their measured CC50.
- assay.overview: in vitro
- test.context: SINV CC50

{"compound": "COc1ccccc1Nc1cc(C)nc2c(C)c(C)cc(N)c12 [Compound 77]", "unit.of.measurement": "µM", "bound.operator": "=", "CC50": 52.6}
{"compound": "CCOC(=O)c1cnc2c(C)cc(C)cc2c1NCCCN(C)C [Compound 75]", "unit.of.measurement": "µM", "bound.operator": "=", "CC50": 23.4}
{"compound": "COc1cccc2c(Nc3cccc([N+](=O)[O-])c3)cc(C)nc12 [Compound 25]", "unit.of.measurement": "µM", "bound.operator": "=", "CC50": 22.9}
{"compound": "COC(=O)c1ccc(Nc2c3c(nc4ccccc24)CCC3)cc1 [Compound 8]", "unit.of.measurement": "µM", "bound.operator": "≥", "CC50": 75}
{"compound": "CCOC(=O)c1cnc2c(ccc3ccccc32)c1NCc1ccco1 [Compound 37]", "unit.of.measurement": "µM", "bound.operator": "=", "CC50": 41.6}
{"compound": "CCc1ccccc1Nc1c2ccccc2nc2ccccc12 [Compound 2]", "unit.of.measurement": "µM", "bound.operator": "=", "CC50": 32.9}
{"compound": "COC(=O)c1ccc(Nc2cc(C)nc3ccc(Cl)cc23)cc1 [Compound 60]", "unit.of.measurement": "µM", "bound.operator": "≥", "CC50": 75}
{"compound": "CC(=O)c1cccc(Nc2cc(C)nc3c(C)cc(C)cc23)c1 [Compound 48]", "unit.of.measurement": "µM", "bound.operator": "=", "CC50": 25.6}
{"compound": "Cc1ccc(Nc2c3c(nc4ccc(C)cc24)CCC3)cc1 [Compound 28]", "unit.of.measurement": "µM", "bound.operator": "=", "CC50": 43.8}
{"compound": "Cc1cccc(Nc2c3c(nc4ccccc24)CCC3)c1 [Compound 11]", "unit.of.measurement": "µM", "bound.operator": "=", "CC50": 28.8}
{"compound": "CCOC(=O)c1cnc2c(C)cccc2c1NCc1ccco1 [Compound 46]", "unit.of.measurement": "µM", "bound.operator": "=", "CC50": 49.1}
{"compound": "CCOc1ccc2nc(C)cc(Nc3ccc(N(C)C)cc3)c2c1 [Compound 57]", "unit.of.measurement": "µM", "bound.operator": "=", "CC50": 31}
{"compound": "Cc1ccc2nc(C)cc(Nc3ccccc3)c2c1 [Compound 3]", "unit.of.measurement": "µM", "bound.operator": "=", "CC50": 52.3}
{"compound": "Cc1cc(Nc2cccc(Cl)c2C)c2cccc(C)c2n1 [Compound 65]", "unit.of.measurement": "µM", "bound.operator": "≥", "CC50": 75}
{"compound": "CCOC(=O)c1cnc2c(C)cc(C)cc2c1NCc1ccco1 [Compound 35]", "unit.of.measurement": "µM", "bound.operator": "=", "CC50": 37.2}
{"compound": "CCOC(=O)c1cnc2c(OC)cccc2c1NCc1cccnc1 [Compound 68]", "unit.of.measurement": "µM", "bound.operator": "=", "CC50": 51}
{"compound": "c1cncc(CNc2c3ccccc3nc3ccccc23)c1 [Compound 5]", "unit.of.measurement": "µM", "bound.operator": "=", "CC50": 28.6}
{"compound": "COc1ccc(Nc2cc(C)nc3c2ccc2ccccc23)cc1 [Compound 7]", "unit.of.measurement": "µM", "bound.operator": "≥", "CC50": 75}
{"compound": "Cc1ccc2nc3c(c(Nc4cccc(C(F)(F)F)c4)c2c1)CCC3 [Compound 26]", "unit.of.measurement": "µM", "bound.operator": "=", "CC50": 53.1}
{"compound": "COC(=O)c1ccc2nc(C)cc(Nc3cccc(O)c3)c2c1 [Compound 73]", "unit.of.measurement": "µM", "bound.operator": "=", "CC50": 72.3}

* * *

- assay.overview: in vitro
- test.context: HCV CC50
Let's look at some compounds and their measured CC50.

{"compound": "CCOC(=O)c1cnc2c(Cl)cc(Cl)cc2c1NCc1ccco1 [Compound 52]", "CC50 [µM]": 70.2}
{"compound": "Cc1cc(Nc2ccc(C)c(C)c2)c2cc(Cl)ccc2n1 [Compound 47]", "CC50 [µM]": 7.84}
{"compound": "c1coc(CNc2c3c(nc4ccccc24)CCC3)c1 [Compound 10]", "CC50 [µM]": 47.6}
{"compound": "CCOC(=O)c1cnc2ccc(OCC)cc2c1Nc1ccccc1CC [Compound 34]", "CC50 [µM]": 35.6}
{"compound": "Cc1ccc(Nc2cc(C)nc3ccc(C)cc23)cc1 [Compound 6]", "CC50 [µM]": 11.7}

* * *

Let's look at some molecules and their measured CC50.
- assay.overview: in vitro
- test.context: HCV CC50
reported.property: CC50

{"chemical.structure": "Cc1ccc2nc3c(c(Nc4ccccc4)c2c1)CCC3", "experimental.value": "24.2 µM"}
{"chemical.structure": "Cc1ccc2nc3c(c(Nc4ccc(O)cc4)c2c1)CCC3", "experimental.value": "33.5 µM"}
{"chemical.structure": "COc1ccc(Nc2cc(C)nc3ccccc23)cc1", "experimental.value": "64.2 µM"}
{"chemical.structure": "COc1ccc2nc(C)cc(Nc3ccc(OCc4ccccc4Cl)cc3)c2c1", "experimental.value": "2.09 µM"}
{"chemical.structure": "CCOC(=O)c1cnc2c(Cl)cccc2c1NCc1ccco1", "experimental.value": "≥ 75 µM"}
{"chemical.structure": "CC(=O)c1cccc(Nc2cc(C)nc3c(C)cc(C)cc23)c1", "experimental.value": "14.1 µM"}
{"chemical.structure": "CCOC(=O)c1cnc2c(ccc3ccccc32)c1NCc1ccco1", "experimental.value": "56 µM"}
{"chemical.structure": "Cc1cccc(Nc2c3c(nc4ccccc24)CCC3)c1", "experimental.value": "9.67 µM"}
{"chemical.structure": "CCOc1ccc2nc(C)cc(Nc3ccc(Br)cc3)c2c1", "experimental.value": "3.01 µM"}
{"chemical.structure": "COc1ccc2nc(C)cc(Nc3ccc(I)cc3)c2c1", "experimental.value": "21.5 µM"}
{"chemical.structure": "CCOC(=O)c1cnc2ccc(OC)cc2c1NCc1ccco1", "experimental.value": "≥ 75 µM"}
{"chemical.structure": "Cc1ccc(Nc2cc(C)nc3c2ccc2ccccc23)cc1", "experimental.value": "9.83 µM"}
{"chemical.structure": "C=CCNc1c2c(nc3ccccc13)CCC2", "experimental.value": "71 µM"}
{"chemical.structure": "COC(=O)c1ccc(Nc2cc(C)nc3ccc(Cl)cc23)cc1", "experimental.value": "45.5 µM"}
{"chemical.structure": "Cc1ccc(Nc2c3c(nc4ccc(C)cc24)CCC3)cc1", "experimental.value": "6.82 µM"}
{"chemical.structure": "CCOc1ccc2nc(C)cc(Nc3ccc(N(C)C)cc3)c2c1", "experimental.value": "4.23 µM"}
{"chemical.structure": "CCOc1ccc2nc(C)cc(Nc3ccc(OCc4ccccc4Cl)cc3)c2c1", "experimental.value": "1.21 µM"}
{"chemical.structure": "CCOC(=O)c1cnc2ccc(OCC)cc2c1NCc1ccco1", "experimental.value": "21.3 µM"}
{"chemical.structure": "COC(=O)c1ccc2nc(C)cc(Nc3cccc(O)c3)c2c1", "experimental.value": "35.2 µM"}
{"chemical.structure": "CCOC(=O)c1ccc2nc(C)cc(Nc3ccc(C)cc3C)c2c1", "experimental.value": "21.4 µM"}
